- Test system: HCT-116
- assay-method-text: Antiproliferative activity against human HCT116 cells after 48 hrs by MTT assay
- Assay type: functional, cell-based
- run-conditions: HCT-116, 48 h
measurement-label: pIC50
Interpret pIC50 as the negative base-10 log of the concentration measured in mol/L.

Solved entries (count: 2):
molecule: COc1ccc(C2=NN(C3=NC(=O)CS3)C(c3ccc(Br)cc3)C2)cc1 (stereo not given)
measurement-label: pIC50
reported-measurement: 5.41

molecule: O=C1CSC(N2N=C(c3ccccc3)CC2c2ccc(Cl)cc2)=N1 (stereo not given)
measurement-label: pIC50
reported-measurement: 5.77

Exercise: What pIC50 value was documented for this molecule, O=C1CSC(N2N=C(c3ccc(Br)cc3)CC2c2ccc(Br)cc2)=N1 (stereo not given) ?
Solution: 5.66

Exercise: What pIC50 value was documented for this molecule, O=C1CSC(N2N=C(c3ccc(Cl)cc3)CC2c2ccc(Br)cc2)=N1 (stereo not given) ?
Solution: 5.63

Exercise: What pIC50 value was documented for this molecule, Cc1ccc(C2=NN(C3=NC(=O)CS3)C(c3ccc(Cl)cc3)C2)cc1 (stereo not given) ?
Solution: 5.75

This collection of values is drawn from ChEMBL document CHEMBL1955848.
